Below, each entry is listed alongside its reported folding stability dG unfold.
- method-summary: folding stability dG unfold from chymotrypsin proteolysis; higher = more stable
Answer shape: numeric part, then the unit.

[[record]]
query_sequence = "SAGGSMIPLTVTRYDPNSDKPVSTTPVVYDPETGTWTAYPPDGSRTTYALSLEDLIAALPSTWSVGPSAGGS [r16_543_JUSTAS]"
result = "0.599 kcal/mol"

[[record]]
query_sequence = "SAGGSQRFRITELVVPEDDGNLFIRVRGPNGKSMFMPASDIEKARKNGKEIEFPFPNGQPFEVEIISAGGSA [r2_301_TrROS]"
result = "-0.461 kcal/mol"

[[record]]
query_sequence = "SAGGSAKLTAEEIKKLPPNARIYFDKETGRVFIEVDGKLVVIEIDKETKEVKVVKVFPSKEALEKASAGGSA [r15_6_TrROS_Hall]"
result = "1.86 kcal/mol"

[[record]]
query_sequence = "SAGPPPWMVIRIPFWVKVTPDDGIITIEFKIEIGNKEFKIKITIPIPPELADAPPGETIPIPIWIFIRPSAG [r5_714_TrROS]"
result = "5.13 kcal/mol"

[[record]]
query_sequence = "SAGEIKITVEEVEDGELLVTVEITAESKEEALKALEDLIRELFGEDVEIVSVEFDEETKRIRVTIRIKPSAG [r5_810_TrROS_Hall]"
result = "3.51 kcal/mol"

[[record]]
query_sequence = "SEAKTMSPEELKEFIEEYIEEERKKNPGKPVRIAIEDLKEKFPGFSPEELKKLLGLSEEELENGAIEIEPSA [r9_525_TrMRF]"
result = "2.38 kcal/mol"


Okay, now this sequence:
Need folding stability dG unfold, item SAGGSAGGSAMTPQVIKVTLYKPATGDVRTVVVLDPVPNTSLDEVAAALPSDYVVAKVEVGSAGGSAGGSAG [r3_80_TrMRF] -0.308 kcal/mol

====

- method-summary: folding stability dG unfold from chymotrypsin proteolysis; higher = more stable
test-readout: folding stability dG unfold (kcal/mol)
Lab book: enter the figure in kcal/mol, no units written.

[[record]]
query_sequence = "SAGGSAGGMEPLTRVTVELELPGGETRVVEGDDLEAVKERLKEELGLPDLVVKSVKTTPLPALESAGGSAGG [r6_406_JUSTAS]"
recorded_number = 0.974

[[record]]
query_sequence = "SAGGSTITTDVPEARELLEELVKAGIKNIKVTVELDGSTVTLEVPPDELEKLVEEIPPEAKVTLEASSAGGS [r16_636_JUSTAS]"
recorded_number = 1.44

[[record]]
query_sequence = "SAGMTLTVVLPVPEEMTEEEAAEILRAYVDAVVAELLAGDAVAVPKEIVVDKETGTAVAKVELFIPPDLSAG [r5_146_TrMRF]"
recorded_number = 2.56

[[record]]
query_sequence = "SAGGGLANLSLEEIRQLLLEKFPELPVEVKVTPVDEKDGVVLVTVRPPLPDGSTVESEEELPLEPGLSAGGS [r16_564_JUSTAS]"
recorded_number = -1.28

[[record]]
query_sequence = "SAGGSAGGSGMTEVVAEKKYPNEVILVTKEPDSYYIVKVTLKDGKVVEKENLGKISPDDPSILSAGGSAGGS [r12_154_JUSTAS]"
recorded_number = -0.458

[[record]]
query_sequence = "SAGGSEAEIVSVEFDEETGTISVLVRNSDGSLYRAEIRFERLPDGSLLVTIKVTLPDGKELTFVFPSAGGSA [r2_488_TrROS_Hall]"
recorded_number = 5.77


Value lookup for folding stability dG unfold; key = SAGGSAGGSAGGMVELDPENGTLTVLVEVDGELYKVTIKFNPETNEIVSIEVEKLPELEESAGGSAGGSAGG [r7_343_TrROS_Hall] 3.85

This collection of values is drawn from the supplement of paper PMC12764529.
